- target_of_assay: Serine protease 1 (Bos taurus, UniProt P00760)
- Sequence (P00760 whole entry): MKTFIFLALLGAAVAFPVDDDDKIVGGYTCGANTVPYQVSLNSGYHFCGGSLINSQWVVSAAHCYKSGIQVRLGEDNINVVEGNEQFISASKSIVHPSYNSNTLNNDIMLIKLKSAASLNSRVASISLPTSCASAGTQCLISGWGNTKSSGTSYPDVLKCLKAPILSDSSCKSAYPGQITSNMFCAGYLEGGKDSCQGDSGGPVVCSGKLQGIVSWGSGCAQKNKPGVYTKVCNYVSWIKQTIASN
Square brackets hold non-standard residues; d marks the D form. Peptide text beside a SMILES is read from it. * marks the point of attachment. X2 = N=C(N)c1ccc(C(N*)P(=O)(Oc2ccccc2)Oc2ccccc2)cc1; X1 = O=C(CCCCC1SCC2NC(=O)NC21)NCCNC(=O)CCS*; Mpa = O=C(O)CCS
Examples of compounds with documented IC50 follow.
Give the value, in units of µM, as a plain number.

compound | IC50 / µM
N=C(N)c1ccc(C(NC(=O)CCSSCCC(=O)NCCNC(=O)CCCCC2SCC3NC(=O)NC32)P(=O)(Oc2ccccc2)Oc2ccccc2)cc1 (configuration not stated) | 31

From here, focus on the item given below.
For CC[C@H](C)[C@H](NC(=O)[C@H](CCC(N)=O)NC(=O)[C@H](CCCCN)NC(=O)CCSSCCC(=O)NCCNC(=O)CCCCC1SCC2NC(=O)NC21)C(=O)N[C@H](C(=O)N[C@@H](CC(N)=O)C(=O)N[C@@H](CCSC)C(=O)N[C@@H](Cc1c[nH]c2ccccc12)C(=O)N[C@@H](CCC(N)=O)C(=O)N[C@@H](CCC(=O)O)C(=O)N[C@H](C(=O)NCC(=O)NC(c1ccc(C(=N)N)cc1)P(=O)(Oc1ccccc1)Oc1ccccc1)C(C)C)[C@@H](C)CC (some centres not stated) ([Mpa](X1)KQIINMWQEVG-X2) the compound record lists IC50 as 30

Source listed as ChEMBL document CHEMBL1134947.
